# Target Or System: human GluN1/GluN2B (Homo sapiens (Human), UniProt Q05586+Q13224)
# Sequence (Q13224 27-1484, other chains not shown): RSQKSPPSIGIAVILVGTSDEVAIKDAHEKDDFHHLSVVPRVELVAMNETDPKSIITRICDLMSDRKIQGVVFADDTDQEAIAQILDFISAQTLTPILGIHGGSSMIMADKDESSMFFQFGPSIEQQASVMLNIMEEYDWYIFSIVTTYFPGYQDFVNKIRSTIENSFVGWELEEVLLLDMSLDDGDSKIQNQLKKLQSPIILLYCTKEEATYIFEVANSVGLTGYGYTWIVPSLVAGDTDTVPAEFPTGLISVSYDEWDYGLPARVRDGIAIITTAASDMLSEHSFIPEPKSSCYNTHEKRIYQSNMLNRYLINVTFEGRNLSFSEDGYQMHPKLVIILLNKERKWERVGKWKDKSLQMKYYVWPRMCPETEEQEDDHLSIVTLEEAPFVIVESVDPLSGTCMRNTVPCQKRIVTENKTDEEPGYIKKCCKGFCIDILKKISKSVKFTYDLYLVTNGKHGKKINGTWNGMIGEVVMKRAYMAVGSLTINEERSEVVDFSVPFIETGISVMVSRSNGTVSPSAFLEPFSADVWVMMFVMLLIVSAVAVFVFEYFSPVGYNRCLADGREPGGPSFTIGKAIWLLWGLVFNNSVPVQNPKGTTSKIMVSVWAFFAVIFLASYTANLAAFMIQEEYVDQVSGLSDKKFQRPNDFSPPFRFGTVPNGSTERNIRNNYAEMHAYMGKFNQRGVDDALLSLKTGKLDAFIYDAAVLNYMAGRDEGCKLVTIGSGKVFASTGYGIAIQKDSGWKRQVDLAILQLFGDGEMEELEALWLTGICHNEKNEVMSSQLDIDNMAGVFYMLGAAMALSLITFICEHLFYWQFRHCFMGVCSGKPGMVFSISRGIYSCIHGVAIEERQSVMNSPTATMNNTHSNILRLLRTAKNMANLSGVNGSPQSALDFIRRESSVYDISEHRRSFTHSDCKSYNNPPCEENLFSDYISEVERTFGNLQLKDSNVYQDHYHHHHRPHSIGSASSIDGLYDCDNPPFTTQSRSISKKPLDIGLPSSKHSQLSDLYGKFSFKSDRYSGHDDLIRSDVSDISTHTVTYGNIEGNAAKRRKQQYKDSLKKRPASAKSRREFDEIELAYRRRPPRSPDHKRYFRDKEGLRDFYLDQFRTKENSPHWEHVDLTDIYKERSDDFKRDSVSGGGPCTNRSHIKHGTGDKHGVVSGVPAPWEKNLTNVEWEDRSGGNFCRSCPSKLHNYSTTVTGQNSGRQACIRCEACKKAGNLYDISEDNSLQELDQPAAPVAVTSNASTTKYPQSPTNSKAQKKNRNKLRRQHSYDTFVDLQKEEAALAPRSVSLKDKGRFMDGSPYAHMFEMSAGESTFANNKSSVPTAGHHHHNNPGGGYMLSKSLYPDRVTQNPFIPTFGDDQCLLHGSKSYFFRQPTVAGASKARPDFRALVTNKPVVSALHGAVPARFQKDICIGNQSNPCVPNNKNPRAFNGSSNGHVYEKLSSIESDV
# Measurement Description: Two electrode voltage-clamp recordings from Xenopus laevis oocytes, GluN2B potency and pH dependence
# Type: cell-based
# Stated Conditions: ratio of IC50 at pH 7.6 to IC50 at pH 6.9
Metric Name: pH Boost
Give bare numbers.

For every item below, please supply its pH Boost.
1. CCCCc1ccc(N2CCN(C[C@H](O)COc3ccc(O)cc3)CC2)cc1
2. CS(=O)(=O)Nc1ccc(OC[C@@H](O)CN2CCN(c3ccc(F)c(F)c3)CC2)cc1

Output:
1: 11.0; 2: 18.0

For every item below, please supply its pH Boost.
1. Oc1ccc(OC[C@@H](O)CN2CCN(c3ccccc3)CC2)cc1
2. CS(=O)(=O)Nc1ccc(OC[C@H](O)CN2CCN(c3ccc(F)c(F)c3)CC2)cc1
3. CCCc1ccc(N2CCN(C[C@H](O)COc3ccc(NC(N)=O)cc3)CC2)cc1
4. Oc1ccc(OC[C@@H](O)CN2CCN(c3ccc(F)c(F)c3)CC2)cc1
5. NC(=O)Nc1ccc(OC[C@@H](O)CN2CCN(c3ccc(Cl)c(Cl)c3)CC2)cc1
6. CC(C)c1ccc(N2CCN(C[C@H](O)COc3ccc(O)cc3)CC2)cc1

Output:
1: 2.2; 2: 6.3; 3: 10.0; 4: 11.2; 5: 9.2; 6: 3.8

---

# Measurement Description: SAD study NP10679-101, plasma pharmacokinetics
# Type: in vivo, human
# Stated Conditions: human, plasma; Cohort 5, 150 mg single IV
Metric Name: MRT (h)
Numbers only, in h.

Task: Looking for the measured MRT of O=C1CCc2cc(OC[C@H](O)CN3CCN(c4ccc(C(F)(F)F)cc4)CC3)ccc2N1 [NP10679] , can you help?
Output: 23

---

For each entry below, report its pH Boost value.
# Target Or System: human GluN1/GluN2B (Homo sapiens (Human), UniProt Q05586+Q13224)
# Measurement Description: Two electrode voltage-clamp recordings from Xenopus laevis oocytes, GluN2B potency and pH dependence
# Type: cell-based
# Stated Conditions: ratio of IC50 at pH 7.6 to IC50 at pH 6.9

Please review the following examples before continuing.
NC(=O)Nc1ccc(OC[C@H](O)CN2CCN(c3ccc(F)cc3)CC2)cc1 [Compound 10225]	5.4
CC(C)c1ccc(N2CCN(C[C@@H](O)COc3ccc(O)cc3)CC2)cc1 [Compound 10247]	4.7
CCc1ccc(N2CCN(C[C@@H](O)COc3ccc(O)cc3)CC2)cc1 [Compound 10245]	15.4

For every item below, please supply its pH Boost.
1. CCc1ccc(N2CCN(C[C@@H](O)COc3ccc(NC(N)=O)cc3)CC2)cc1 [Compound 10222]
2. Cc1ccc(N2CCN(C[C@H](O)COc3ccc(O)cc3)CC2)cc1 [Compound 10040]

Output:
1: 3.5; 2: 3.5

---

# Measurement Description: SAD study NP10679-101, plasma pharmacokinetics
# Assay type: in vivo, human
# Stated Conditions: human, plasma, iv, 150 mg, Cohort 5, 150 mg single IV; read-out: Cmax
Metric Name: Cmax (ng/mL)
Answers are plain numbers, in ng/mL.

Task: Looking for the measured Cmax of O=C1CCc2cc(OC[C@H](O)CN3CCN(c4ccc(C(F)(F)F)cc4)CC3)ccc2N1 , can you help?
Output: 954

---

# Measurement Description: SAD study NP10679-101, plasma pharmacokinetics
# Assay type: in vivo, human
# Stated Conditions: human, plasma, iv, 5 mg, Cohort 1, 5 mg single IV
Metric Name: clearance (mL/min)
Answers are plain numbers, in mL/min.

Task: Looking for the measured clearance of O=C1CCc2cc(OC[C@H](O)CN3CCN(c4ccc(C(F)(F)F)cc4)CC3)ccc2N1 , can you help?
Output: 164

---

# Measurement Description: SAD study NP10679-101, plasma pharmacokinetics
# Assay type: in vivo, human
# Stated Conditions: human, plasma; Cohort 4, 100 mg single IV; read-out: Vss
Metric Name: Vd (L)
Give bare numbers, in L.

Task: Looking for the measured Vd of O=C1CCc2cc(OC[C@H](O)CN3CCN(c4ccc(C(F)(F)F)cc4)CC3)ccc2N1 [NP10679] , can you help?
Output: 259

---

# Measurement Description: Pharmacokinetics in the brain compartment compared to plasma in mice
# Format: in vivo
# Stated Conditions: BALB/c, mouse, brain, intraperitoneal, 5 mg/kg, 5 mg/kg IP, 8 hours post dosing; read-out: estimated free drug concentration in the brain
Metric Name: concentration at 8 h

Task: Looking for the measured concentration at 8 h of O=C1CCc2cc(OC[C@H](O)CN3CCN(c4ccc(C(F)(F)F)cc4)CC3)ccc2N1 [NP10679] , can you help?
Output: 28 to 56 nM

---

# Measurement Description: SAD study NP10679-101, plasma pharmacokinetics
# Assay type: in vivo, human
# Stated Conditions: human, plasma; Cohort 6, 200 mg single IV, harmonic mean; read-out: T1/2* (converted)
Metric Name: half-life

Task: Looking for the measured half-life of O=C1CCc2cc(OC[C@H](O)CN3CCN(c4ccc(C(F)(F)F)cc4)CC3)ccc2N1 , can you help?
Output: 17.4 h

---

# Measurement Description: SAD study NP10679-101, plasma pharmacokinetics
# Assay type: in vivo, human
# Stated Conditions: human, plasma; Cohort 6, 200 mg single IV; read-out: Vss
Metric Name: Vd (L)
One number for each entry, in L.

Task: Looking for the measured Vd of O=C1CCc2cc(OC[C@H](O)CN3CCN(c4ccc(C(F)(F)F)cc4)CC3)ccc2N1 , can you help?
Output: 221

---

# Measurement Description: SAD study NP10679-101, plasma pharmacokinetics
# Format: in vivo, human
# Stated Conditions: human, plasma; Cohort 1, 5 mg single IV
Metric Name: AUC(0-t) (ng·h/mL)
Numbers only, in ng·h/mL.

Task: Looking for the measured AUC(0-t) of O=C1CCc2cc(OC[C@H](O)CN3CCN(c4ccc(C(F)(F)F)cc4)CC3)ccc2N1 , can you help?
Output: 335

---

# Measurement Description: in vivo
# Stated Conditions: BALB/c, mouse, plasma, iv, 3 mg/kg
Metric Name: half-life (h)
One number for each entry, in h.

Task: Looking for the measured half-life of O=C1CCc2cc(OC[C@H](O)CN3CCN(c4ccc(C(F)(F)F)cc4)CC3)ccc2N1 [NP10679] , can you help?
Output: 8.56

---

# Measurement Description: SAD study NP10679-101, plasma pharmacokinetics
# Format: in vivo, human
# Stated Conditions: human, plasma; Cohort 3, 50 mg single IV
Metric Name: MRT (h)
Answers are plain numbers, in h.

Task: Looking for the measured MRT of O=C1CCc2cc(OC[C@H](O)CN3CCN(c4ccc(C(F)(F)F)cc4)CC3)ccc2N1 [NP10679] , can you help?
Output: 23.8

---

# Measurement Description: clinical
# Stated Conditions: human, plasma, intravenous, 50 mg
Metric Name: half-life

Task: Looking for the measured half-life of O=C1CCc2cc(OC[C@H](O)CN3CCN(c4ccc(C(F)(F)F)cc4)CC3)ccc2N1 [NP10679] , can you help?
Output: 15.5 to 25.6 h

---

# Measurement Description: SAD study NP10679-101, plasma pharmacokinetics
# Type: in vivo, human
# Stated Conditions: human, plasma, iv, 50 mg, Cohort 3, 50 mg single IV; read-out: Cmax
Metric Name: Cmax (ng/mL)
Answers are plain numbers, in ng/mL.

Task: Looking for the measured Cmax of O=C1CCc2cc(OC[C@H](O)CN3CCN(c4ccc(C(F)(F)F)cc4)CC3)ccc2N1 , can you help?
Output: 415

---

# Measurement Description: SAD study NP10679-101, plasma pharmacokinetics
# Assay type: in vivo, human
# Stated Conditions: human, plasma; Cohort 2, 15 mg single IV, harmonic mean; read-out: T1/2* (converted)
Metric Name: half-life (h)
Give bare numbers, in h.

Task: Looking for the measured half-life of O=C1CCc2cc(OC[C@H](O)CN3CCN(c4ccc(C(F)(F)F)cc4)CC3)ccc2N1 [NP10679] , can you help?
Output: 20.4

---

# Measurement Description: in vivo
# Stated Conditions: male, BALB/c, mouse, plasma, ip, 2 mg/kg
Metric Name: AUC(0-t) (ng·h/mL)
Answers are plain numbers, in ng·h/mL.

Task: Looking for the measured AUC(0-t) of O=C1CCc2cc(OC[C@H](O)CN3CCN(c4ccc(C(F)(F)F)cc4)CC3)ccc2N1 [NP10679] , can you help?
Output: 4750

---

# Measurement Description: SAD study NP10679-101, plasma pharmacokinetics
# Type: in vivo, human
# Stated Conditions: human, plasma; Cohort 3, 50 mg single IV; read-out: Vss
Metric Name: Vd (L)
Give bare numbers, in L.

Task: Looking for the measured Vd of O=C1CCc2cc(OC[C@H](O)CN3CCN(c4ccc(C(F)(F)F)cc4)CC3)ccc2N1 , can you help?
Output: 255
